// provenance: patent US8198273B2

Target: UniProt P11712
Sequence (P11712 whole entry): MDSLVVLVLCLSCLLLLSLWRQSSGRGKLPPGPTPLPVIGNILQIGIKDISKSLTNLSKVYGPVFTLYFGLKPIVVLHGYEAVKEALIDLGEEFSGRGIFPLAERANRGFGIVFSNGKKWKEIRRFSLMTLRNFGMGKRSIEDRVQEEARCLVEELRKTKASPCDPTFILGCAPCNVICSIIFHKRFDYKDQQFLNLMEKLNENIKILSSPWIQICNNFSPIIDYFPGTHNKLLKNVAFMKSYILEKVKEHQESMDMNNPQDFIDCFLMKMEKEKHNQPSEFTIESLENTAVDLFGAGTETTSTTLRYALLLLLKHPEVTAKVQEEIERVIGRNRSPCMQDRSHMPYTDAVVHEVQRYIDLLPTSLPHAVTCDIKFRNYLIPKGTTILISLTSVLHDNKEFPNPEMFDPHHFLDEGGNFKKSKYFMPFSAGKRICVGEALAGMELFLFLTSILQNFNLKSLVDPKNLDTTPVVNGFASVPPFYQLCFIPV
Assay: CYP2C9 inhibition (fluorescent substrate)
Type: in vitro ADME
Settings: CYP2C9, MFC substrate; read-out: Cyp IC50 2C9
Protocol: CYP (Cytochrome P450) enzymes are the major drug metabolizing enzymes present in the liver. The inhibition of CYP enzyme activity (IC50) for each of CYP1A2, CYP2C19, CYP2C9, CYP2D6, CYP3A4(BFC) and CYP3A4(BQ) is determined for compounds, where inhibition of metabolism of a known substrate leads to a decrease in the fluorescence of the metabolized product. The fluorescence of the product is monitored as a function of compound concentration. […]
property.measured: IC50

{"compound": "CCCS(=O)(=O)Nc1ccc(F)c(C(=O)c2c[nH]c3ncc(-c4ccc(C(=O)NCC)nc4)cc23)c1F [P-2151]", "IC50": "5 to 10 µM"}
{"compound": "CCCS(=O)(=O)Nc1ccc(F)c(C(=O)c2c[nH]c3ncc(-c4ccc(Cl)nc4)cc23)c1F [P-2154]", "IC50": "5 to 10 µM"}
{"compound": "CCCS(=O)(=O)Nc1ccc(F)c(C(=O)c2c[nH]c3ncc(-c4ccc(OCCN5CCOCC5)nc4)cc23)c1F [P-2232]", "IC50": "5 to 10 µM"}
{"compound": "C#Cc1cnc2[nH]cc(C(=O)c3c(F)ccc(NS(=O)(=O)CCC)c3F)c2c1 [P-2260]", "IC50": "5 to 10 µM"}
{"compound": "COc1ncc(-c2cnc3[nH]cc(C(=O)c4c(F)ccc(NS(=O)(=O)c5ccccc5F)c4F)c3c2)cn1 [P-2041]", "IC50": "> 10 µM"}

Data request: Any idea what its IC50 is? The compound is CCCS(=O)(=O)Nc1ccc(F)c(C(=O)c2c[nH]c3ncc(-c4cnc(N5CCOCC5)nc4)cc23)c1F [P-2197]
Data returned: > 10 µM

Data request: Quick check: IC50 of O=C(c1c(F)ccc(NS(=O)(=O)c2ccccc2F)c1F)c1c[nH]c2nccc(Cl)c12 [P-2017] ?
Data returned: > 10 µM

Data request: Consider the compound shown here: CCCS(=O)(=O)Nc1ccc(F)c(C(=O)c2c[nH]c3ncc(C#CCOC)cc23)c1F [P-2239] What is its recorded IC50?
Data returned: 5 to 10 µM
